TARGET_UNDER_TEST: human OT7T175 (metastin receptor) (human, UniProt Q969F8 1-398)
Sequence (Q969F8 whole entry L364H): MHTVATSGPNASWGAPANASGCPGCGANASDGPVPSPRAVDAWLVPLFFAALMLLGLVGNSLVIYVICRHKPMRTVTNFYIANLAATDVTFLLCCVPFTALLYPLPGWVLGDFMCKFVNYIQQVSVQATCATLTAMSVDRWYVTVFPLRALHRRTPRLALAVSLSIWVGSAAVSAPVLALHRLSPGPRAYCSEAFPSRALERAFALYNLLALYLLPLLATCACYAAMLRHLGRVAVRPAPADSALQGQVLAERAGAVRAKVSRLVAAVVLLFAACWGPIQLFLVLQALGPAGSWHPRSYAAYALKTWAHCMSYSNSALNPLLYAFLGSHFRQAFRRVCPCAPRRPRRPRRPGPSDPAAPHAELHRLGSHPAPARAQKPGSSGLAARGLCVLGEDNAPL
ASSAY_SUMMARY: cell-based or functional assay
Non-standard residues stand in square brackets, D forms with d. No end group written: not given here. Arg(Me) = CNC(=N)NCCC[C@H](N)C(=O)O; azaGly = NNC(=O)O
List of Ca ion level-increasing activity (FLIPR, 40 s) values.
REPORTED_PROPERTY: Ca ion level-increasing activity (FLIPR, 40 s) (EC50/MS10 EC50)

* YNWNSXGLRF (Nal(2)6; C-terminal amide, also called Compound No. 152) [[Nal(2)6]MS10] | 1.4
* YNWNSFGLXF (Nar9; C-terminal amide, also called Compound No. 310) [[Nar9]MS10] | 2
* [dY][dW]NSF[azaGly]L[Arg(Me)]F-NH2 (N-terminus assumed; SMILES CNC(=N)NCCC[C@H](NC(=O)[C@H](CC(C)C)NC(=O)NNC(=O)[C@H](Cc1ccccc1)NC(=O)[C@H](CO)NC(=O)[C@H](CC(N)=O)NC(=O)[C@@H](Cc1c[nH]c2ccccc12)NC(=O)[C@H](N)Cc1ccc(O)cc1)C(=O)N[C@@H](Cc1ccccc1)C(N)=O, also called Compound No. 242) [des(1)-[D-Tyr2,D-Trp3,AzaGly7,Arg(Me)9]MS10] | 1.4
